Test: protein stability index of a GFP-peptide fusion (yeast GPS) (PSI 1-4); higher = more stable; sorted into four equal gates, so the index is relative within each strain
Settings: pdr5∆
A collection of sequences and their measured protein stability index
assayEndpoint: protein stability index

INSERT INTO assay_data (sequenceentry, val) VALUES
  ('MAATATDKIGRSVPAPG [FAS2]', 3),
  ('TKDIFPLQNIHVRKVKL [RPS1A]', 2.81),
  ('LQQGMRGAWGKPHGLAA [RPL10]', 2.57),
  ('RQTTSNTGLLNKANIQA [RPN11]', 3.02),
  ('VICSVTGPIEPKARQEL [RRP46]', 3.06),
  ('YQSSVQEPFLNSSNYAE [PRP8]', 2.96),
  ('YATKRQEAIQQNRRLAF [PRP8]', 2.43),
  ('VDNENNKPAIKEDSTIQ [SWI3]', 2.97),
  ('IPVYCFSHPAHQQRMSR [YCG1]', 2.04),
  ('FPVDPTTPVKLGPGIYC [RRP40]', 2.48),
  ('YEAYPNTSLPPSILEDS [FAS1]', 2.4),
  ('IKKMLHLVWMKGTNDEG [YCS4]', 3.51),
  ('ENAYDNPLADAEEALEP [PRE4]', 3),
  ('MARRPARCYRYQKNKPY [RPL10]', 2.13),
  ('VDFACCTNLTNRTLYEL [GRR1]', 2.71),
  ('NSDKPRDVYVFDKVEVQ [DIS3]', 2.93),
  ('NLSSTPMETLLSGLSAD [YML031W/NDC1]', 2.59),
  ('IIKRSNGQSLSPVRSDS [YMR153W/NUP53]', 2.87),
  ('YISAELYAQLRENGLVP [SNU114]', 2.21),
  ('SYLSETLISRISSLFTI [YML103C/NUP188]', 1.89),
  ('LILIPGETMWVPIKSSK [RPN13]', 2.51),
  ('VDTLHNKEGTLEQREQN [SSN2]', 3.47),
  ('NQLTESASHFEQYTKKI [YJL041W/NSP1]', 2.45),
  ('QVILPMSPNHGTFGGDG [FAS2]', 3.1),
  ('WELYTDFNEIVQYLSGA [POP3]', 2.31),
  ('ETLSIFTNVPLNLEQVT [YJL039C/NUP192]', 2.53),
  ('EEIPINSSEQESDYEPN [SIR3]', 3.15),
  ('KDKTKNISAEIIRHEKE [SMC4]', 3.02),
  ('PNFTGIDKLMLSPSDQF [SSN2]', 1.33),
  ('TLLSPKDNGMLIIDGQI [RPO21]', 2.29),
  ('LQSIVNEISRNGTMINE [PCI8]', 2.64),
  ('NTEITQKSSKENIENEE [ECM29]', 3.28),
  ('KHITVRLTAKRLIEHDP [SRP14]', 2.52),
  ('RKANREEKLKANKEKKR [RPL24B]', 1.96),
  ('TNNVLRKLGLLGDKEDE [MTW1]', 2.35),
  ('HYDNTTRNSLGNVIQFI [RPO21]', 2.62),
  ('ERIVVSYEYYNIKHKHT [SMC2]', 1.86),
  ('MSTELTVQSERAFQKQP [RPS11A]', 2.97),
  ('LKQHNQNNLPPNFFLTL [BRR2]', 3.07),
  ('KRSTVPLNDGFVDLVEH [YML103C/NUP188]', 2.97),
  ('RMRFPPFDDDEPPLSYE [PRP8]', 3.06),
  ('QRKTNGASNGDDSNGGN [BRN1]', 2.92),
  ('NANTVFSERAAMFAALQ [SWI1]', 2.32),
  ('NVTFGSKKDPRILKNVS [YMR153W/NUP53]', 2.69),
  ('SWSNGKITSPIRSVALN [RRP42]', 2.62),
  ('FPVSLSQPSKKSFANHT [SIR4]', 2.87),
  ('DTFGEGIIITDQSNVQY [BRR2]', 3.21),
  ('RVRVTGGGHVSQVYAIR [RPS16A]', 2.87),
  ('HKSIELISNLLFSKNRN [YCS4]', 2.47);

###

A collection of sequences and their measured protein stability index
Experiment: protein stability index of a GFP-peptide fusion (yeast GPS) (PSI 1-4); higher = more stable; sorted into four equal gates, so the index is relative within each strain
Settings: ubr1∆
assayEndpoint: protein stability index

INSERT INTO measurements (sequenceentry, assayendpoint, val) VALUES
  ('EYYVMMDFANLWVFQAF [SRB8]', 'protein stability index', 2.64),
  ('GNIQISEYNFLEGSVSL [DIS3]', 'protein stability index', 2.89),
  ('FLVLYDVKTAEEASQLI [NUT1]', 'protein stability index', 3.01),
  ('TGKYGVRYGSSLRRQVK [RPL43A]', 'protein stability index', 3.06),
  ('DDEEYDYNDVEVNSKKK [BRR2]', 'protein stability index', 3.33),
  ('LLTNSNNGSSNNNTQNT [SNF5]', 'protein stability index', 3.18),
  ('VEDELTESIALSSMRFK [RRI1]', 'protein stability index', 3.28),
  ('KSIIGKLTAERANLRKY [POP1]', 'protein stability index', 2.6),
  ('RTGPKALPDAVTIIEPK [RPS3]', 'protein stability index', 3.09),
  ('KNKGLVVSPYDYNHKRV [DIB1]', 'protein stability index', 3.35),
  ('STDKLVQCHGSFATATC [SIR2]', 'protein stability index', 2.76),
  ('LEDLKNTKEIAVDLEHH [RRP6]', 'protein stability index', 2.7),
  ('EKVTRYNRHKLQELIVN [RPO31]', 'protein stability index', 1.44),
  ('PDDEKFTDENTIVLSLN [RPC40]', 'protein stability index', 3.47),
  ('TRNSNNLAIVELVRLLI [BRR2]', 'protein stability index', 2.4),
  ('LKTVIILSSLYLLSIWV [CYT1]', 'protein stability index', 1.17),
  ('YTYHSTNKDNKAELIKP [ARP9]', 'protein stability index', 2.98),
  ('NDDKKTEPDKPAFSFNS [YJL041W/NSP1]', 'protein stability index', 3.2),
  ('TTFEYIIKERALLSKVK [SNF2]', 'protein stability index', 1.37),
  ('QQLDSFNQFVDYTLQDI [RPB2]', 'protein stability index', 2.43),
  ('ELKINLPLTEHKSPNLS [SRB4]', 'protein stability index', 2.98),
  ('YVSDSDDSSSDNDSLTD [SIR4]', 'protein stability index', 2.63),
  ('LGITGLATDVTTLNEMF [PUP3]', 'protein stability index', 2.27),
  ('MSAVPSVQTFGKKKSAT [RPS16A]', 'protein stability index', 1.22),
  ('HDADLEVSMNSIFAMGL [RPN1]', 'protein stability index', 2.4),
  ('KMIDFATLSKLKKKYQI [SIR3]', 'protein stability index', 3.47),
  ('HDEKSDSLNEWIKFDQE [RPN7]', 'protein stability index', 3.21),
  ('RAKAMKFADGFLIHSGQ [RPS3]', 'protein stability index', 3.22),
  ('LAYSKIVNGQTFSYVDS [YMR129W/POM152]', 'protein stability index', 1.95),
  ('TMQPPYIQERLKSLNDI [MED11]', 'protein stability index', 2.82),
  ('KVPDSTYDMVGGLTKQI [RPT6]', 'protein stability index', 2.57),
  ('SLKQYAGNLITTPEINN [SRP68]', 'protein stability index', 2.31),
  ('STFREWKNLVLKLSQAF [YJR042W/NUP85]', 'protein stability index', 2.74),
  ('NDITNLQLSKTPLSIKI [SRB8]', 'protein stability index', 2.77),
  ('EQTTGGNNKDLKNTMQY [RPB4]', 'protein stability index', 3.18),
  ('RNLQMGLRNQNMVRNNN [GRR1]', 'protein stability index', 2.54),
  ('KNLKDTASVEKAEFSKE [YIL149C/MLP2]', 'protein stability index', 3.24),
  ('VLEFCKDYEAKTKAMSL [POP1]', 'protein stability index', 3.06),
  ('KVVEFAITHMIDALGTE [SCL1]', 'protein stability index', 2.18),
  ('LQSIVNEISRNGTMINE [PCI8]', 'protein stability index', 2.9),
  ('EQEDIIEKTESVDKKVD [SWI3]', 'protein stability index', 2.99),
  ('ISMNAPVFVDLEGETDP [RPO26]', 'protein stability index', 3),
  ('YQLNGVAPFMIKYEFNG [YMR129W/POM152]', 'protein stability index', 2.73),
  ('YSIEMKPYSGKLLKVCL [ECM29]', 'protein stability index', 2.83),
  ('LHQRTHKQVYPLRMETI [DSN1]', 'protein stability index', 2.6),
  ('LKKRYDLSYNFNVHEVP [YMR129W/POM152]', 'protein stability index', 2.82),
  ('SRDLWCFSINDDPVPTP [SSN2]', 'protein stability index', 2.63),
  ('RRMAFKPFGSAKSDETK [YLR335W/NUP2]', 'protein stability index', 2.08),
  ('FVSSGFDTSIKLDIISD [RPN14]', 'protein stability index', 2.44),
  ('ALILADSEIEISSEKLL [RPP1A]', 'protein stability index', 2.06),
  ('LKLNHIIANINSFTKGN [SNU114]', 'protein stability index', 1.84);
